- assay: Pharmacokinetic analysis of TIC10 in plasma
- experimentalParameters: female, C57/B6, mouse, in vivo, iv, 25 mg/kg
assayReadout: Cmax (µM)
Write the answer as a number in µM, unit excluded.

Query string: Answer with reported Cmax of Cc1ccccc1CN1C(=O)C2=C(CCN(Cc3ccccc3)C2)N2CCN=C12 [TIC10]
Result string: 44.2

----------
- assay: Pharmacokinetic analysis of TIC10 in plasma
- experimentalParameters: female, C57/B6, mouse, in vivo, iv, 25 mg/kg
assayReadout: Tmax (min)
Write the answer as a number in min, unit excluded.

Query string: Answer with reported Tmax of `Cc1ccccc1CN1C(=O)C2=C(CCN(Cc3ccccc3)C2)N2CCN=C12`
Result string: 1.2

----------
- assay: Pharmacokinetic analysis of TIC10 in plasma
- experimentalParameters: female, C57/B6, mouse, in vivo, iv, 25 mg/kg
assayReadout: AUC(0-inf)
Give the value; after it, write the unit.

Query string: Answer with reported AUC(0-inf) of `Cc1ccccc1CN1C(=O)C2=C(CCN(Cc3ccccc3)C2)N2CCN=C12`
Result string: 63.9 µM·h

----------
- assay: Pharmacokinetic analysis of TIC10 in plasma
- experimentalParameters: female, C57/B6, mouse, in vivo, iv, 25 mg/kg
assayReadout: Vd (L/kg)
Write the answer as a number in L/kg, unit excluded.

Query string: Answer with reported Vd of Cc1ccccc1CN1C(=O)C2=C(CCN(Cc3ccccc3)C2)N2CCN=C12 [TIC10]
Result string: 9.39
